Test system: RPMI-8226 leukemia
Assay: NCI tumour cell line growth inhibition, 48 h; in the data active means GI50 below about 0.43 µM; inactive means the rest
# output must be one of active, inactive

In: Hey, what did the test say about `Cc1c2ncccc2c(C)c2c1[nH]c1ccc(O)cc12` ?
Out: inactive

In: Call for entry `COc1ccc(-n2c(-c3ccc(NC(=O)CCCl)cc3)nnc2-c2cc(OC)c(OC)c(OC)c2)cc1` :
Out: inactive

In: # outcome recorded in this test, key = `COc1ccc(/C=C\c2cc(OC)c(OC)c(OC)c2)cc1NC(=O)[C@@H](N)CO`
Out: active

In: Test call, this molecule: `CCOC(=O)c1sc2ncn(Cc3cccc(Cl)c3)c(=O)c2c1C`
Out: inactive
